For reference, AC50 measured on Motilin receptor (Homo sapiens, UniProt O43193):

So what's the measured AC50 for this one? C=CCC1(C(C)CC)C(=O)NC(=O)NC1=O (stereo not given)
> 10 µM

Likewise for COc1ccc(CCNCC(O)COc2cccc(C)c2)cc1OC (stereo not given) ?
> 10 µM

Likewise for CC1(C)O[C@@H]2C[C@H]3[C@@H]4CCC5=CC(=O)C=C[C@]5(C)[C@H]4[C@@H](O)C[C@]3(C)[C@]2(C(=O)CO)O1 [DESONIDE] ?
> 10 µM

Likewise for `O=C(O)CCCCCCCC(=O)O` ?
> 10 µM

Likewise for Cc1ccc(S(=O)(=O)NC(=O)NN2CC3CCCC3C2)cc1 (stereo not given) [GLICLAZIDE] ?
> 10 µM
